// data source = the supplement of paper PMC3334620

Molecular target: Vhr1 (UniProt P40522)
Sequence: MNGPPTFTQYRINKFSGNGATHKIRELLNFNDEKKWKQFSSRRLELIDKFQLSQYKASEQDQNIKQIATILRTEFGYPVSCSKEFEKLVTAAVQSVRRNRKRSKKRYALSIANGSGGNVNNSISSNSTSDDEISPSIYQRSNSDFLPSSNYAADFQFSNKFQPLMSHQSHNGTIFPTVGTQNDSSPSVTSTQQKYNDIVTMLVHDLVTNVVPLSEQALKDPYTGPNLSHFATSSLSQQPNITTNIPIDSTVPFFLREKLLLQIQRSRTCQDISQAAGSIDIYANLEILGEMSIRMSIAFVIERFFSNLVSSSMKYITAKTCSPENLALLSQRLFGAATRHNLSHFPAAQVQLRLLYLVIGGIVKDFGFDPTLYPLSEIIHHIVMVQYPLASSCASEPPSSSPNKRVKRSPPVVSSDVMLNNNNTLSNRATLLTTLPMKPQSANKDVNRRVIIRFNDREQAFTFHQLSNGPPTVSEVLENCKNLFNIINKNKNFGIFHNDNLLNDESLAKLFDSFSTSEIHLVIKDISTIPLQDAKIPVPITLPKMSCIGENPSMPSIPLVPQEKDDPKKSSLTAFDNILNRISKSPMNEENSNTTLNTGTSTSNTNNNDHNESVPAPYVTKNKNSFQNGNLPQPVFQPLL
Experiment: PBM E-score (8-mer binding enrichment) (E-score (-0.5 to 0.5)); higher = stronger / more preferred TF binding
Settings: protein concentration: 200 nM; construct: GST-full length
Over roughly 33,000 sequences, “E-score (-0.5 to 0.5)” has its median near -0.012; the highest 2% begin near 0.27. Only a selection was taken, and the highest values are over-represented in it overall.
Metric Name: PBM E-score

| Entry Sequence | Test Result |
| --- | --- |
| CTTACCCC | -0.156 |
| CTATTGGA | -0.0419 |
| CAACGCTA | -0.125 |
| ATCACCCA | 0.223 |
| CTCACCCA | 0.342 |
| AATGATTC | 0.406 |
| ACCGCCCT | -0.0373 |
| CTTGATTA | 0.0605 |
| GATCCATC | 0.194 |
| CCCGCCCA | 0.301 |
| CTCACCCC | 0.318 |
| TATAGGAA | 0.0238 |
| CAACCCGC | 0.272 |
| GTCACCGA | 0.256 |
| GCGTTAAA | -0.0751 |
| AAACCCGC | 0.0774 |
| ATCACCCC | 0.199 |
| TCTGCCAA | -0.205 |
| CTCACCAA | 0.265 |
| ATTGATTC | 0.171 |
| GTCACCCA | 0.311 |
| ACCGCCCC | 0.325 |
